Catalogue of compounds with associated ASMS ratio (%)
- target or system: Bcl-2 protein (Recombinant Human Bcl-2 Protein) (Homo sapiens, UniProt P10415)
- Construct: purchased Novus NBP2-34889
- Sequence (P10415 whole entry): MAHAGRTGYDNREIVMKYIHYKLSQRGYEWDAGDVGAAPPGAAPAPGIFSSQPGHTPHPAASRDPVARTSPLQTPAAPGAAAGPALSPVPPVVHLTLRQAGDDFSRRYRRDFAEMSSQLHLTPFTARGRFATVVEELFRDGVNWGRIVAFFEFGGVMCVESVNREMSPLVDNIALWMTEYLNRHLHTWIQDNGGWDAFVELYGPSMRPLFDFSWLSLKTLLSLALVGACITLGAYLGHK
- measurement notes: Binding evaluation of mixture library compounds to Bcl-2 using AS-MS (affinity selection mass spectrometry)
- measurement conditions: n = 1
Provide the reading as a plain figure in %.

**Q:** Given the entry `CCOc1cccc(C#Cc2cncc(C(=O)N3CCN(c4ccc(C(=O)NS(=O)(=O)CCC(F)(F)F)cc4)CC3)c2)c1` , report its measured ASMS ratio (%).
**A:** 0.0

**Q:** I have this compound here, `CCOc1cccc(-c2cc(CN3CCN(c4ccc(C(=O)NS(=O)(=O)C(C)(C)C)nn4)CC3)cc(C(F)(F)F)c2)c1` , and I need its recorded ASMS ratio (%).
**A:** 1.9

**Q:** Report ASMS ratio (%) for CCOc1cccc(-c2ccc(C(C)N3CCN(c4ccc(C(=O)NS(=O)(=O)CCC(F)(F)F)cc4)CC3)c(F)c2)c1 (centres unmarked) please.
**A:** 0.0

**Q:** Requested field: ASMS ratio (%). Item: `CCOc1cncc(C#Cc2cc(C(=O)N3CCN(c4ccc(C(=O)NS(=O)(=O)CCC(F)(F)F)nn4)CC3)cc(C(F)(F)F)c2)c1`
**A:** 0.0

**Q:** Data request, read-out ASMS ratio (%), for `CCOc1cncc(-c2ccc(CN3CCN(c4ccc(C(=O)NS(=O)(=O)c5ccc(NCCSc6ccccc6)c(C(F)(F)F)c5)nn4)CC3)cc2F)c1`
**A:** 15.8

**Q:** Item under review: `CCOc1cncc(-c2ccc(CN3CCN(c4ccc(C(=O)NS(=O)(=O)c5ccc(NCCSc6ccccc6)c(C(F)(F)F)c5)cc4)CC3)c(CC)c2)c1` . Reported ASMS ratio (%)?
**A:** 0.0

**Q:** Item `CCOc1cncc(-c2ccc(CN3CCN(c4ccc(C(=O)NS(C)(=O)=O)cc4)CC3)cc2F)c1` has what recorded ASMS ratio (%)?
**A:** 0.0

**Q:** May I ask what ASMS ratio (%) has been recorded for `CCOc1cncc(-c2ccc(CN3CCN(c4ccc(C(=O)NS(=O)(=O)C(C)(C)C)cc4)CC3)c(CC)c2)c1` ?
**A:** 0.0

More entries:
**Q:** For the compound shown here, `CCOc1cncc(-c2cc(OC)c(CN3CCN(c4ccc(C(=O)NS(C)(=O)=O)nn4)CC3)c(OC)c2)c1` , give the reported ASMS ratio (%).
**A:** 0.0

**Q:** Which ASMS ratio (%) value belongs to `CCOc1cncc(-c2ccc(CN3CCN(c4ccc(C(=O)NS(C)(=O)=O)nn4)CC3)c(CC)c2)c1` ?
**A:** 0.2

---

- target or system: Bcl-2 protein (Recombinant Human Bcl-2 Protein) (Homo sapiens, UniProt P10415)
- Construct: purchased Novus NBP2-34889
- measurement notes: Binding evaluation of mixture library compounds to Bcl-2 using AS-MS (affinity selection mass spectrometry)
- measurement conditions: AS-MS, mixture of 1200 compounds, Bcl-2; ASMS Ratio(%)=(A−C)/B×100; replicate n = 2
# ASMS ratio (%) n = 2 annotations
Write down the numeric answer in % and omit the unit.

**Q:** Request the reported ASMS ratio (%) n = 2 associated with CCOc1cccc(-c2cc(CN3CCN(c4ccc(C(=O)NCC(F)(F)F)nn4)CC3)cc(C(F)(F)F)c2)c1 [B1K087-01]
**A:** −0.1

Others:
**Q:** Item CCOc1cccc(-c2ccc(C(=O)N3CCN(c4ccc(C(=O)NCC56CC7CC(CC(C7)C5)C6)cc4)CC3)cc2F)c1 [B1A027-01] has what recorded ASMS ratio (%) n = 2?
**A:** −7.8

**Q:** So what does the record say about ASMS ratio (%) n = 2 for CCOc1cncc(-c2ccc(CN3CCN(c4ccc(C(=O)NCC(F)(F)F)cc4)CC3)c3ccccc23)c1 [B1K066-01] ?
**A:** −0.7

**Q:** Quick one: ASMS ratio (%) n = 2 of CCOc1cncc(-c2cnn(-c3cc(C(=O)N4CCN(c5ccc(C(=O)NCC67CC8CC(CC(C8)C6)C7)cc5)CC4)cc(C(F)(F)F)c3)c2)c1 [B1A044-01] ?
**A:** −1.9

**Q:** So what does the record say about ASMS ratio (%) n = 2 for CCCNC(=O)c1ccc(N2CCN(Cc3cc(-c4cccc(OCC)c4)cc(C(F)(F)F)c3)CC2)nn1 [B1M027-01] ?
**A:** 0.4

**Q:** What ASMS ratio (%) n = 2 value was documented for this compound, CCCNC(=O)c1ccc(N2CCN(Cc3ccccc3C#Cc3cncc(OCC)c3)CC2)cc1 [B1M054-01] ?
**A:** 0.0

**Q:** Can you look up the measured ASMS ratio (%) n = 2 of CCOc1cncc(-c2cc(C(=O)N3CCN(c4ccc(C(=O)NCC(F)(F)F)nn4)CC3)cc(C(C)(C)C)c2)c1 [B1K016-01] for me?
**A:** 0.0
